Numbers sourced from the supplement of paper PMC9170038.

Tested on: MS2 coat protein
Test: apparent KD of MS2 coat protein; higher = weaker reporter binding
Conditions: Eterna round: R107; input ligand: arginine 13.2 mM
attribute measured: apparent KD of MS2 coat protein (µM)
One number for each entry, in µM.

These solved cases illustrate the format of a correct answer.
sequence string | units | apparent KD of MS2 coat protein
UAAAACAUGAGGAUCACCCAUGUAUUUGAUACCAGAGUGAUGAUCCUCCCUUGGCAGCAAAUAACGCAUUGAUUACAAUGCGAAA [Mat - Same State Theophlline A - Mod of Eli - D28] | µM | 0.0348
CAAUAAGUAACUGAUACCAGUGUACUGACAUGAGGAUCACCCAUGUUGGGUUUUGUUGUACACCCUUGGCAGCAGAAUCUUAUUG [AstrosExyTheB#12] | µM | 0.0442
CUCAUCCACGCGGCCGCCACUACUUGUAGGUGUGGGUGUGUUGUGUUACAUGAGGAUCACCCAUGUAGGACCGGGCGUGGAUGAG [Whale] | µM | 0.0539

Query block: So what's the measured apparent KD of MS2 coat protein for this one? ACAUGAGGAUCACCCAUGUCAUGAGGUUCACGAGGACCGGUACGGCCGCCACUCGACAUGAGGGUCACCCGUGAACGGAACACCC [kpmullin]
Result block: 0.0147

* * *

I'd be grateful if you could share measured apparent KD of K4 kissing-loop reporter for these entries.
Tested on: K4 kissing-loop RNA reporter
Test: apparent KD of K4 kissing-loop reporter; higher = weaker reporter binding
Conditions: Eterna round: R107; input ligand: theophylline 20 uM
Numbers only, in µM.

sequence string | apparent KD of K4 kissing-loop reporter / µM
UAGUCCUAGUGAUCGUUAUCAAGUGGUGGGCGAGGACCGGUACGGCCGCCACUCGACUAUGCAGUGAUGUUGCAAUCCGGACAAU [Exclusion - Tryptophan A (Freestyle 14)] | 0.254
UUAUAUUUUAUAUUUAGUAGAGCUCUCGCUCGAGGACCGGUACGGCCGCCACUCGAGUGAUGUUCGAGUGGGAGAGCUCUACAUU [AK3.3 EXC Tryptophan A] | 0.1
AAGGGCUAGGCGGCCGCCACUGGUCGUGAACACAUACGAGCCAGUGAUGUUGGUAUUGUGUGCGGCAGGACCGGGCCUAGCCGAA [Exclusion - Tryptophan B (Freestyle 24)] | 0.409

Please go through the list and note apparent KD of K4 kissing-loop reporter for each sequence.
1. GAUUCUGUUCGAAAGAACGGAAUCACGGAAGGAGCGAGAGAAAUCUCAGGUAGGUCGCCGAAUUUUUGAUAGUGAUGUUAUCAUU [Arginine A K4 2]
2. UUUUAGGUAUCUGAUACCAGAGAAAAUAUAUGUAGUGAUGUUAUAUACAAAAUAAUUAAGCUCCCUUGGCAGCAGUUUUAAUUUU [AstrosExc-TheB#5]
3. UCUGCAAAGUCGGCCGCCACUCCGGGCCCUAUAAAUGGGCGCAGUGAUGUUGCGGCUAGGCCUCUGAGGACCGGGACUUUAUAGA [Anarisgema]
4. AACGCAAGUUGUCUGGUAGACAUUUCAGAUACCAGACAUAGUGAUGUCCCUUGGCAGCUGAACAUCCAGUGAUGUUGGAUACGUU [Theo A SS t11a]
5. UCCACGCUUAGAGGAUAUCGGAUUAGAGUGAUGUUCUAAAGAAGCCCAGUGAUGUUGGAUGGUAUACGAGAAGGCUGAGGCGUGG [Same State FMN B GF 3]
6. GUGAAUGGCUGAGCAGCCGUGGUACGAGAUACCAGUGAUUUCGAUCACCCUUGGCAGCUCGGCGUGAGUGAUGUUCACGCUACAC [Theo A SS t12a]

Result block:
0.408
0.763
0.0883
0.507
0.588
0.33

Query block: Short answer please: apparent KD of K4 kissing-loop reporter, K4 kissing-loop RNA reporter, entry UUAGGAGUGGGAGGAUAUCCUAAUGUGGGUGAUGUUAGUGAUGUUGAAAGUGUAGUGAUGUUGUGCGGAGAAGGUCCAGUGUUGA [BDazzled - #11 - Exc. FMN B]
Result block: 0.192

* * *

Tested on: K4 kissing-loop RNA reporter
Assay: apparent KD of K4 kissing-loop reporter; higher = weaker reporter binding
Conditions: Eterna round: R107; input ligand: arginine 13.2 mM
attribute measured: apparent KD of K4 kissing-loop reporter (nM)
Give bare numbers, in nM.

Known apparent KD of K4 kissing-loop reporter results, listed for orientation:
sequence string | units | observed result
AGGAUCACGUCAGUGAUGUUGACAAGAGAUACCAGAGACGAAAGUCUCCCUUGGCAGCUCAUCGUGAUCCGUGACAAAGGUCACA [Omei KL hio A SS C v3] | nM | 135
GAUUCUGUUCGAAAGAACGGAAUCACGGAAGGAGCGAGAGAAAUCUCAGGUAGGUCGCCGAAUUUUUGAUAGUGAUGUUAUCAUU [Arginine A K4 2] | nM | 353
UCAUCGGUACAAGGAUAUUAGAGGUAGUGAUGUUACCCGUUUUUUAUACAUCGAUGUCACCCUAACUAAGAAGGUGUUCAAACUU [theeternabot_exclusion_KL_FMN_B_7] | nM | 52.7

Please examine the following record next.
Query block: I'd like to know its apparent KD of K4 kissing-loop reporter. The sequence in question is AUUAAUUUCAGAGGAUAUCGUUAUUUUUUAUAUUUUAUUCAUUUAUGCAGUGAUGUUGCUAUUAAUCGAGAAGGCUGAUUUAUAA [JR_ExcFMNB_Sub003]
Result block: 114

* * *

Give measured apparent KD of K4 kissing-loop reporter for each item. Keep answers brief.
Test system: K4 kissing-loop RNA reporter
Assay: apparent KD of K4 kissing-loop reporter; higher = weaker reporter binding
Settings: Eterna round: R107; input ligand: tryptophan 2.4 mM
Numbers only, in nM.

Guide cases for apparent KD of K4 kissing-loop reporter, answers given:
sequence string | apparent KD of K4 kissing-loop reporter [nM]
UGUGUUGUUUUGAUGUUUGGUGUAAGUUGGCAGGAUAUCGUAGAGGCGAGAAGGGCUUUUAUGCGUUAUGAGUGAUGUUUGUAGG [zrrzmullin] | 699
UUCGUAGUAGGAAACUAUUACGAAAAGGAAGGAGCGGCGAAGAAGCCAGGUAGGUCGCCUAUUGACAGUGAUGUUGUUAUAUAGA [#10] | 162
UUUAAACAUAGUGAUGUUAUGUAACAAUGACGAGGACCGGUACGGCCGCCACUCGAGAGAGAUGAUGGUAAAAUAAAUAAUUUUC [#10 K4 Tryptophan A Same State] | 90.6
AAUUGAGUGACGGCCGCCACUAGAGUGAUUUUUUUGUUUGAGUGAUGUUUUGAUGUUUGAUGUUGUAGGACCGGGUUGAGUGAUG [vvrvmullin] | 291
UACAAUUUGGCGGCCGCCACUGACCAUAGCCUUCGAUGGCCAGUGAUGUUGGCCUCUGGCUCUAACAGGACCGGGCCAAAUUAUG [Maeste] | 117
CCGUAGCGAUCGGCCGCCACUCAAGAUCGCCAACUAUCACACGGUUCUCCCGAGUGAUGUUCUAGGAGGACCGGGAUUGUUGCUC [theeternabot_exclusion_KL_Trp_B_13] | 388

Give apparent KD of K4 kissing-loop reporter for each of the items listed below.
1. AGGCACGAGCAAGGAUAUCGAGUGGAGUGAUGUUCUGCCGACCCAGGACCGAAAGGUCCUGGGUCGCGAGAAGGUGCUCGUGCCU [#2 Same State - FMN A Attempt #8 (HarryS)]
2. CGCGCGCGUUGAGAGGUGCGCGCGAAUGAUACCAGUAUAUAAGAAUACCCUUGGCAGCAUAAGAAAGAUAUAGUGAUGUUGUAUA [SSTheophA.F]
3. GCCUUAUAUCCAGCUACAGCUCUUUUUGGUCGAGGACCGGUACGGCCGCCACUCGAAUGAUAGUGAUGUUAUCGUUUUGUACUAA [JR_Nu_ExcTryptoA_Sub024]
4. GCCGUACGCAUGGAUACCAGCAACCCUGCCAUCCCAGUGAUGUUGGGAGGAACAUUCUCAUGCCCUUGGCAGCCAUGCGUACGGC
5. AACUCUCAGGCACGCGAGUGAUGUUCGCGCCGAGGACCGGUACGGCCGCCACUCGGGCCUGAGAGAGGUUAUCAAAGAUAGCCAA [whbob_SS_tryp_A]
6. UUAGAGAUCUCAGGAUAUCAGUGAUGUUGGUGUAAAGAUCUGAGAUAGAAUUCUAUCUCAGAUCAAUGAGAAGGGAGAUCUCAUU [AK3.2 Exc FMN B]
7. CUAAUCGCUCAUGAUACCAGCUAGUGAUGUUAGCCCGUCAAGCUGAGGGUUCAUCCACCCAGCCCUUGGCAGCAUUCUCGGUCAG [theeternabot_exclusion_KL_Theo_B_8]

Result block:
1: 711; 2: 228; 3: 54.7; 4: 459; 5: 250; 6: 174; 7: 364

Below is a list of sequences. For each, state its recorded apparent KD of K4 kissing-loop reporter.
1. ACGUAGCAGGCGGCCGCCACUCCGCAUAUGGAUCUCGAGUGAUGUUUGAGGGUGCCCAUCACAGCGAGGACCGGGCCAAUUAAGC [theeternabot_sameState_KL_Trp_B_10]
2. AGAUUCUUUUUUUUAUUUAAGUUUUCAGAAGGAGCGUGGUAGUACACAGGUAGGUCGCUGAAUUUUGGGCUAGUGAUGUUAGUUA [whbob_SS_Arginine_A_sa115]
3. AUUAGGCGAAGUGAUGUUUCAUAUAAUGGCAAGGAUAUGUCCUUACACAGAAGGUGCUCUUAGUCAGGUUAUAUUAGGACUGCUA [theeternabot_exclusion_KL_FMN_A_42]

Result block:
1. 254
2. 135
3. 340

Query block: GET /values?readout=apparent KD of K4 kissing-loop reporter&system=K4 kissing-loop RNA reporter&item= GUUACGCAUGGAAGGAGCGCUCUCAUGCUUAAUAACACAGUGAUGUUGUGAAUUUGCAUAAAGCAGGUAGGUCGCCAUGUGUAAC [Ex Arginine B K4 8];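 note: bound reporter read as fluorescence of individual clusters on recovered sequencing chips by microscopy, with normalized cluster intensities fitted with a binding model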
Result block: 332
